- Measured Target: human FASN (Homo sapiens)
- Construct: was purified from SKBR3 cells using procedures modified from those in Jayakumar et al; endogenous in cells; host or cells: SKBR3 human breast cancer cells (ATCC); Endogenous enzyme purified by ammonium sulfate precipitation and a mono Q column
- Experimental Protocol: FASN Scintillation Proximity Flashplate Assay
- Type: biochemical
- Details: human FASN purified from SKBR3 cells; unstarred symbols
Recorded IC50 by entry
Metric: IC50

INSERT INTO measurements (compound, measured_target, metric, reported_result) VALUES
  ('CNC(=O)c1cc(N(C(=O)n2nnn(-c3c(F)cccc3F)c2=O)C2CCCCC2)ccc1OC', 'human FASN (Homo sapiens)', 'IC50', '< 15 nM'),
  ('COc1ccc(C(=O)O)cc1N(C(=O)n1nnn(-c2c(F)cccc2OC)c1=O)C1CCCCC1', 'human FASN (Homo sapiens)', 'IC50', '< 15 nM'),
  ('CCN(C(=O)n1nnn(-c2c(F)cccc2F)c1=O)c1ccccc1Oc1ccccc1', 'human FASN (Homo sapiens)', 'IC50', '< 15 nM'),
  ('COc1ccc(COC(=O)c2cc(N(C(=O)n3nnn(-c4cccc5nsnc45)c3=O)C3CCCCC3)ccc2OC)cc1', 'human FASN (Homo sapiens)', 'IC50', '< 15 nM'),
  ('COc1cccc(F)c1-n1nnn(C(=O)N(c2cccc(C(=O)O)c2)C(C)C)c1=O', 'human FASN (Homo sapiens)', 'IC50', '15 to 100 nM'),
  ('CCN(C(=O)n1nnn(-c2c(F)cccc2F)c1=O)c1ccc(N)cc1F', 'human FASN (Homo sapiens)', 'IC50', '< 15 nM'),
  ('CCN(C(=O)n1nnn(-c2c(F)cccc2F)c1=O)c1cc(C(=O)O)ccc1OC(C)C', 'human FASN (Homo sapiens)', 'IC50', '15 to 100 nM'),
  ('COc1cc(OC)c(N(C(=O)n2nnn(-c3c(F)cccc3F)c2=O)C2CCCCC2)cc1C(=O)O', 'human FASN (Homo sapiens)', 'IC50', '< 15 nM'),
  ('CC(C)(C)OC(=O)N1CCN(c2ccc(N(C(=O)n3nnn(-c4c(F)cccc4F)c3=O)C3CCCCC3)cc2C(=O)O)CC1', 'human FASN (Homo sapiens)', 'IC50', '< 15 nM'),
  ('COc1ccc(N(C(=O)n2nnn(-c3c(F)cccc3OC)c2=O)C2CCCCC2)cc1C(=O)O', 'human FASN (Homo sapiens)', 'IC50', '< 15 nM'),
  ('CCN(C(=O)n1nnn(-c2c(F)cccc2OC)c1=O)c1cc(Oc2ccc(C(=O)O)cc2)ccc1C', 'human FASN (Homo sapiens)', 'IC50', '15 to 100 nM'),
  ('CCN(C(=O)n1nnn(-c2c(F)cccc2F)c1=O)c1ccc(F)cc1F', 'human FASN (Homo sapiens)', 'IC50', '< 15 nM'),
  ('CCC(CC)N(C(=O)n1nnn(-c2c(F)cccc2F)c1=O)c1cccc(C(=O)O)c1', 'human FASN (Homo sapiens)', 'IC50', '15 to 100 nM'),
  ('COc1cccc(F)c1-n1nnn(C(=O)N(c2ccccc2)C2CCCCC2)c1=O', 'human FASN (Homo sapiens)', 'IC50', '15 to 100 nM'),
  ('CCN(C(=O)n1nnn(-c2c(F)cccc2OC)c1=O)c1cc(C(=O)O)ccc1OCCc1ccccc1', 'human FASN (Homo sapiens)', 'IC50', '< 15 nM'),
  ('CCN(C(=O)n1nnn(-c2ccccc2Cl)c1=O)C1CCCC1', 'human FASN (Homo sapiens)', 'IC50', '200 to 5000 nM'),
  ('COc1ccccc1-n1nnn(C(=O)N(c2ccc(Br)cc2)c2ccc(C(=O)O)cc2)c1=O', 'human FASN (Homo sapiens)', 'IC50', '< 15 nM'),
  ('COc1ccc(N(C(=O)n2nnn(-c3ccccc3OC)c2=O)C(C)C)cc1C(=O)OCc1ccccc1', 'human FASN (Homo sapiens)', 'IC50', '< 15 nM'),
  ('CCC(C)N(C(=O)n1nnn(-c2c(F)cccc2OC)c1=O)c1cccc(C(=O)O)c1 (stereo not shown)', 'human FASN (Homo sapiens)', 'IC50', '< 15 nM');

###

- Measured Target: human FASN (Homo sapiens, UniProt P49327)
- Construct: was purified from SKBR3 cells using procedures modified from those in Jayakumar et al; endogenous in cells; host or cells: SKBR3 human breast cancer cells (ATCC); Endogenous enzyme purified by ammonium sulfate precipitation and a mono Q column
- Sequence (P49327 whole entry): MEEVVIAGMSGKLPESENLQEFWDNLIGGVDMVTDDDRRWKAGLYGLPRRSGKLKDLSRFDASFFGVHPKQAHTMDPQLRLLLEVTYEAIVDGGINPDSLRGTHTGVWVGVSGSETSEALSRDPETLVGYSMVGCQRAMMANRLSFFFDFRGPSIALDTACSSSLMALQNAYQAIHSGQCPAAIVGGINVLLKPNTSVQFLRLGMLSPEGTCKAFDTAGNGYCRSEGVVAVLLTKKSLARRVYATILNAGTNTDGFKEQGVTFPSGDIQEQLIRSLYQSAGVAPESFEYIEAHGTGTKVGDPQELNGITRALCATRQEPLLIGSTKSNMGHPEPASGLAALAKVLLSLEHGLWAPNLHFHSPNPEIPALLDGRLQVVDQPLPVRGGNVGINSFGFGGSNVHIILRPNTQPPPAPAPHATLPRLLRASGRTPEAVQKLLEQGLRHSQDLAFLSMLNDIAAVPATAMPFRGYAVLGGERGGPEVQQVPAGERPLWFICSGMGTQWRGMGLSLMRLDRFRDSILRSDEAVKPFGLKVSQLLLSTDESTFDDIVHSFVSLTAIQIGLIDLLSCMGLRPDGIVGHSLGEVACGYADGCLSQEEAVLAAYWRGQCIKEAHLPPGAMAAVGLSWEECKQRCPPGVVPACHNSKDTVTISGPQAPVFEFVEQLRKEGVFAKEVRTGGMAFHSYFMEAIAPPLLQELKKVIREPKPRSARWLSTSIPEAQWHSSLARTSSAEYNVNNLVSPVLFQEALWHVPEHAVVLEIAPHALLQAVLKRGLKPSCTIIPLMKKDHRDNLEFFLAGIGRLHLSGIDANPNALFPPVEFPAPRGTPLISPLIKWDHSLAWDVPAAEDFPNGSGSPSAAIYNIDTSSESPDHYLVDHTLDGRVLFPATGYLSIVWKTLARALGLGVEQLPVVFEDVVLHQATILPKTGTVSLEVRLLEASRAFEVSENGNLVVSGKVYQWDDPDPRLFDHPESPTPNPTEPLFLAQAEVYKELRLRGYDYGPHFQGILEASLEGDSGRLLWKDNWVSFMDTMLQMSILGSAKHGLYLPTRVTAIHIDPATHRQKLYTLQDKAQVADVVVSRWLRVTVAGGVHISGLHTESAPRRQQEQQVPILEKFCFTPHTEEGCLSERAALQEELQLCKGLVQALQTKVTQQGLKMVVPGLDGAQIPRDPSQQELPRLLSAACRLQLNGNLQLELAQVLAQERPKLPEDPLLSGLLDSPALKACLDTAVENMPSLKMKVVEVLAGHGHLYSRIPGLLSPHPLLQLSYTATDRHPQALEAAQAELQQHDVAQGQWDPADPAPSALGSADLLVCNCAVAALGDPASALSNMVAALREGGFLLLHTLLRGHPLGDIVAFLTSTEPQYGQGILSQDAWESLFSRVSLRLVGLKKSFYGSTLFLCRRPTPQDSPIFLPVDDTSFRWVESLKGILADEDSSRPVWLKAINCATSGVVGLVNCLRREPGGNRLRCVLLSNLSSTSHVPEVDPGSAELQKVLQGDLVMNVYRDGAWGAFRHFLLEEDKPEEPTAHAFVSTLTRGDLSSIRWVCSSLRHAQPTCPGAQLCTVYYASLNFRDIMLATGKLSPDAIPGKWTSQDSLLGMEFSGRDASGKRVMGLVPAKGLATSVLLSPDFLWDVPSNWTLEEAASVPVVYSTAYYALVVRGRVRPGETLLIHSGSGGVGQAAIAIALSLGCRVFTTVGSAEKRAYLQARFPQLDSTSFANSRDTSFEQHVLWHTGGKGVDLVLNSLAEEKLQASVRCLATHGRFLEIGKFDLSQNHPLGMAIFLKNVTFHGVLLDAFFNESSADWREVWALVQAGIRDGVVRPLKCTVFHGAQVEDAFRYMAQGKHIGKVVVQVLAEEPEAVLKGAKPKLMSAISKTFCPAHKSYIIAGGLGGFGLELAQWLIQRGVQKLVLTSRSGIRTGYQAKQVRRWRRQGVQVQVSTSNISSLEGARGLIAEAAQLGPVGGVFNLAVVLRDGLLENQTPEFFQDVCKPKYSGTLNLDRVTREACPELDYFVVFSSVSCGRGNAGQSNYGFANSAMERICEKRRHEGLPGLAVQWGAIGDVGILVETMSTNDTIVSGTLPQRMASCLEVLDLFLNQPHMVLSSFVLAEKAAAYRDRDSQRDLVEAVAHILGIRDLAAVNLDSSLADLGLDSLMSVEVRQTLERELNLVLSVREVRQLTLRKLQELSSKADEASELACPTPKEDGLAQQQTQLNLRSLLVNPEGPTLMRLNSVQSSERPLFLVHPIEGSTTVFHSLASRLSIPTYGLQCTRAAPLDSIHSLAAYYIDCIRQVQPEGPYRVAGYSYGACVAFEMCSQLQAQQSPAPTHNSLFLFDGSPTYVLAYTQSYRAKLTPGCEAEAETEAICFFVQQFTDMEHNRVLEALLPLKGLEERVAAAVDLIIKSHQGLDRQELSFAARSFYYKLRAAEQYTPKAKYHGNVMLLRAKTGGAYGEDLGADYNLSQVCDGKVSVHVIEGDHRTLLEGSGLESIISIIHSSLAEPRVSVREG
- Experimental Protocol: FASN Scintillation Proximity Flashplate Assay
- Format: biochemical
- Details: human FASN purified from SKBR3 cells; unstarred symbols
pIC50: −log10 of the molar value.
Metric: pIC50

INSERT INTO assay_data (entry_smiles, reported_result) VALUES
  ('COc1cccc(F)c1-n1nnn(C(=O)N(c2ccc(OCCc3ccccc3)c(C(=O)O)c2)C(C)C)c1=O', '7.00 to 7.82'),
  ('O=C(O)c1ccc(N(C(=O)n2nnn(-c3c(F)cccc3F)c2=O)C2CCCCC2)cc1O', '> 7.82'),
  ('Cc1ccc(C)n1-c1ccc(N(C(=O)n2nnn(-c3c(F)cccc3F)c2=O)C2CCCCC2)cc1C(=O)O', '> 7.82'),
  ('COc1ccc(C(=O)OCc2ccccc2)cc1N(C(=O)n1nnn(-c2c(F)cccc2OC(C)C)c1=O)C1CCCCC1', '7.00 to 7.82'),
  ('COc1ccc(C(=O)O)cc1N(C(=O)n1nnn(-c2c(F)cccc2F)c1=O)C1CCCCC1', '> 7.82'),
  ('CCN(C(=O)n1nnn(-c2c(F)cccc2F)c1=O)c1ccc(C(=O)O)c(OC)c1', '> 7.82'),
  ('CC(=O)N1CCN(c2ccc(N(C(=O)n3nnn(-c4c(F)cccc4F)c3=O)C3CCCCC3)cc2C(=O)O)CC1', '> 7.82'),
  ('COCCOCOc1ccc(N(C(=O)n2nnn(-c3c(F)cccc3F)c2=O)C2CCCCC2)cc1C(=O)O', '> 7.82');

###

- Measured Target: human FASN (Homo sapiens, UniProt P49327)
- Construct: was purified from SKBR3 cells using procedures modified from those in Jayakumar et al; endogenous in cells; host or cells: SKBR3 human breast cancer cells (ATCC); Endogenous enzyme purified by ammonium sulfate precipitation and a mono Q column
- Experimental Protocol: FASN Scintillation Proximity Flashplate Assay
- Assay type: biochemical
- Details: human FASN purified from SKBR3 cells; unstarred symbols
Metric: IC50

INSERT INTO assay_data (entry_smiles, metric, reported_result) VALUES
  ('COc1ccc(C(=O)O)cc1N(C(=O)n1nnn(-c2c(F)cccc2F)c1=O)C(C)C', 'IC50', '< 15 nM'),
  ('CN(C)c1ccc(N(C(=O)n2nnn(-c3c(F)cccc3F)c2=O)C2CCCCC2)cc1C(=O)O', 'IC50', '< 15 nM'),
  ('COc1cccc(F)c1-n1nnn(C(=O)N(c2ccccc2)C2CCOCC2)c1=O', 'IC50', '15 to 100 nM'),
  ('COc1ccc(N(C(=O)n2nnn(-c3cccc(N)c3N)c2=O)C2CCCCC2)cc1C(=O)O', 'IC50', '15 to 100 nM'),
  ('COc1ccc(N(C(=O)n2nnn(-c3c(F)cccc3F)c2=O)C2CCCCC2)cc1C(=O)NC(C)(C)C(=O)O', 'IC50', '< 15 nM'),
  ('CCN(C(=O)n1nnn(-c2c(F)cccc2C(=O)N2CCOCC2)c1=O)c1ccccc1Oc1ccccc1', 'IC50', '200 to 5000 nM'),
  ('CCN(C(=O)n1nnn(-c2c(F)cccc2F)c1=O)c1ccc(C(=O)O)cc1Oc1ccccc1', 'IC50', '< 15 nM'),
  ('CCN(C(=O)n1nnn(-c2c(Cl)cccc2Cl)c1=O)c1ccc(Cl)c(C(=O)OCc2ccc(OC)cc2)c1', 'IC50', '< 15 nM'),
  ('COCCOc1ccc(N(C(=O)n2nnn(-c3c(F)cccc3OCCOC)c2=O)C2CCCCC2)cc1C(=O)O', 'IC50', '15 to 100 nM'),
  ('COc1cc(C(=O)O)cc(N(C(=O)n2nnn(-c3c(F)cccc3F)c2=O)C(C)C)c1', 'IC50', '< 15 nM'),
  ('COc1ccc(N(C(=O)n2nnn(-c3c(F)cccc3OC)c2=O)C(C)C)cc1C(=O)OCc1ccccc1', 'IC50', '< 15 nM'),
  ('CN(Cc1cccc2ccccc12)C(=O)n1nnn(-c2c(F)cccc2F)c1=O', 'IC50', '100 to 200 nM'),
  ('COc1cccc(F)c1-n1nnn(C(=O)N(CC(C)(C)C)c2cccc(C(=O)OCc3ccccc3)c2)c1=O', 'IC50', '15 to 100 nM'),
  ('COc1cc(Oc2ccccc2)c(N(C(=O)n2nnn(-c3c(F)cccc3F)c2=O)C2CCCCC2)cc1C(=O)O', 'IC50', '< 15 nM'),
  ('CCN(C(=O)n1nnn(-c2c(F)cccc2C(=O)NCc2ccccc2)c1=O)c1ccccc1Oc1ccccc1', 'IC50', '15 to 100 nM'),
  ('COc1cccc(F)c1-n1nnn(C(=O)N(c2cc(C(=O)O)ccc2Oc2ccccc2)C(C)C)c1=O', 'IC50', '< 15 nM'),
  ('O=C(N(c1ccccc1)C1CCCCC1)n1nnn(-c2c(F)cccc2F)c1=O', 'IC50', '< 15 nM'),
  ('COc1ccc(C(=O)O)cc1N(C(=O)n1nnn(-c2c(F)cccc2OC)c1=O)C(C)C', 'IC50', '< 15 nM');
